src = the DeepSol protein solubility set

- experiment: soluble on expression in E. coli; label from the status in PepcDB or PDB records
reported_metric: soluble on expression in E. coli

- sequence_data: "SLNTGEPAPVLSSPPPADVSTFLAFPSPEKLLRLGPKSSVLIAQQTDTSDPEKVVSAFLKVSSVFKDEATVRMAVQDAVDALMQKAFNSSSFNSNTFLTRLLVHMGLLKSEDKVKAIANLYGPLMALNHMVQQDYFPKALAPLLLAFVTKPNSALESSSFARHSLLQTLYKV"
  reported_metric: "soluble on expression in E. coli"
  measured: "soluble"
- sequence_data: "GMKGENMMVKLIALYEQPEDKQAFDEHYFNTHAPLTRKIPGLRDMKVTRIVGSPMGESKFYLMCEMYYDDHESLQQAMRTDEGKASGKDAMKFAGKLLTLMIGEEMDE"
  reported_metric: "soluble on expression in E. coli"
  measured: "soluble"
- sequence_data: "MGSDKIHHHHHHMRKLISIILLLLTININSQIVELRPVKVPAEHAEYFETIHTEYSIKTAQDAKDKGKLYGWWVAKRLNTNEDDFNYLFITVHPSVESLIDNEYWWQNSEEVTGYKPEILYKMADLFEFDKQYIYQVEMQIPDAAEAKYIIINFATPDDLNTVLKESKEIVMPHFQKNLIKSGMVGWGVATKITPQGSNYSSFSTWDSYDSLENMMKHLGGGAAIEGLPLNKLTPIEWSMRPIFRVITGTK"
  reported_metric: "soluble on expression in E. coli"
  measured: "not soluble"
- sequence_data: "MPYVTVKMLEGRTEEQKKALAEKVTAAVSETTGAPEENIVVFIEEMSKNHYAVGGKRLSDK"
  reported_metric: "soluble on expression in E. coli"
  measured: "not soluble"
- sequence_data: "MLSAWFSGKYSVLKDENGYVFLDRDGDRFRHILNYLRCGTVHIGEDIRLLGEILEEAEYFGLQSLAQQLKEALLQCRVKQEEKESSVCGRMNNEDNLFHPMFEPLDGFSSSQTSQGEPLLTLLPSSQEFRLDEDF"
  reported_metric: "soluble on expression in E. coli"
  measured: "soluble"
- sequence_data: "MAHHHHHHMQPMVLPYVDRKPPISKVMDARVLVWRESERMLRNGEGAAECSYAQKLQVLRSQQLADARKYMDTSAAMRSVKPVLATSSVDADDDDEFCRKRSRESEGPSVDEIRRFEGKLGETLALELTLWSLRRGSHGGVRSQRYTTALHALQDTQKLLRKTLQQMEEINALRFLEQQQFLKVNSEKARLLHVRLRNVRALENILRGNGKRRGSTLLATLE"
  reported_metric: "soluble on expression in E. coli"
  measured: "not soluble"
- sequence_data: "MSLEQLLGRGEAAPSVRYDETIQKIIPIIKNSIRLPDDLRDRKTIWEFIRPQLMGIKALEAGFSMALWDWWGQKIGRPIFELLSVKTKMLPQTSYTISIGGFDELGAKLEEAKPYSILKVKLGTPKMDKEIITEIRRHTEKLIRVDANEGWTEDVALEMSFWLADRNIEFIEQPFPAKDLNSSIELKKKSPLEIFADENSLNSNDIKPIRHAFHGINIKLMKCGSLEEGKKMIDVARENGLKVMLGCMVETSVGITSASHLAGEVDFVDLDGNLLIKNDPYSGVLVNNGRLVLQKGNGSGVKLSSDYRNILEEGHHHHHH"
  reported_metric: "soluble on expression in E. coli"
  measured: "soluble"
- sequence_data: "MSLSDAFLSSIKNRRTIYALDKQLPVSQEKIVELVKEAVSHSPSAFNSQSSRVVVLFGAEHEQFWNIAKDELKKIVPADAFAATETKLNSFAAGAGTVLFFEDQTVVRQLQEQFALYADNFPVWSEQASGMAQFAVWTALAEHKVGASLQHYNPLVDAQTHKTWNLPESWKLRAQMPFGAIAAPAGEKAFIAESERFKVFGNEGGSHHHHHH"
  reported_metric: "soluble on expression in E. coli"
  measured: "soluble"
- sequence_data: "MGHHHHHHSHMLKKMGEAVARVARKVNETVESGSDTLDLAECKLVSFPIGIYKVLRNVSGQIHLITLANNELKSLTSKFMTTFSQLRDVPVEKLAAMPALRSINLRFNPLNAEVRVIAPPLIKFDMLMSPEGARAPLP"
  reported_metric: "soluble on expression in E. coli"
  measured: "not soluble"
